Give measured Chemoheterotrophic β-galactosidase activity for each item. Keep answers brief.
- Tested on: cbb promoter
- Assay type: cell-based, Ralstonia eutropha
- Assay setup: Table 12, chemoheterotrophic (repressed) growth

Note to self: Chemoheterotrophic β-galactosidase activity recorded for T232I (protein) MSSFLRALTLRQLQIFVTVARHASFVRAAEELHLTQPAVSMQVKQLESVVGMALFERVKGQLTLTEPGDRLLHHASRILGEVKDAEEGLQAVKDVEQGSITIGLISTSKYFAPKLLAGFTALHPGVDLRIAEGNRETLLRLLQDNAIDLALMGRPPRELDAVSEPIAAHPHVLVASPRHPLHDAKGFDLQELRHETFLLREPGSGTRTVAEYMFRDHLFTPAKVITLGSNEIIKQAVMAGMGISLLSLHTLGLELRTGEIGLLDVAGTPIERIWHVAHMSSKRLSPASESCRAYLLEHTAEFLGREYGGLMPGRRVA was 303 nmol/min/mg of protein

Note to self: Chemoheterotrophic β-galactosidase activity recorded for wt CbbR: wild-type CbbR (R. eutropha), 317 amino acids, SEQ ID NO: 1 (protein) MSSFLRALTLRQLQIFVTVARHASFVRAAEELHLTQPAVSMQVKQLESVVGMALFERVKGQLTLTEPGDRLLHHASRILGEVKDAEEGLQAVKDVEQGSITIGLISTSKYFAPKLLAGFTALHPGVDLRIAEGNRETLLRLLQDNAIDLALMGRPPRELDAVSEPIAAHPHVLVASPRHPLHDAKGFDLQELRHETFLLREPGSGTRTVAEYMFRDHLFTPAKVITLGSNETIKQAVMAGMGISLLSLHTLGLELRTGEIGLLDVAGTPIERIWHVAHMSSKRLSPASESCRAYLLEHTAEFLGREYGGLMPGRRVA was 3 nmol/min/mg of protein

Note to self: Chemoheterotrophic β-galactosidase activity recorded for G205D/R283H (protein) MSSFLRALTLRQLQIFVTVARHASFVRAAEELHLTQPAVSMQVKQLESVVGMALFERVKGQLTLTEPGDRLLHHASRILGEVKDAEEGLQAVKDVEQGSITIGLISTSKYFAPKLLAGFTALHPGVDLRIAEGNRETLLRLLQDNAIDLALMGRPPRELDAVSEPIAAHPHVLVASPRHPLHDAKGFDLQELRHETFLLREPGSDTRTVAEYMFRDHLFTPAKVITLGSNETIKQAVMAGMGISLLSLHTLGLELRTGEIGLLDVAGTPIERIWHVAHMSSKHLSPASESCRAYLLEHTAEFLGREYGGLMPGRRVA was 2311 nmol/min/mg of protein

Note to self: Chemoheterotrophic β-galactosidase activity recorded for G205D/G118D (protein) MSSFLRALTLRQLQIFVTVARHASFVRAAEELHLTQPAVSMQVKQLESVVGMALFERVKGQLTLTEPGDRLLHHASRILGEVKDAEEGLQAVKDVEQGSITIGLISTSKYFAPKLLADFTALHPGVDLRIAEGNRETLLRLLQDNAIDLALMGRPPRELDAVSEPIAAHPHVLVASPRHPLHDAKGFDLQELRHETFLLREPGSDTRTVAEYMFRDHLFTPAKVITLGSNETIKQAVMAGMGISLLSLHTLGLELRTGEIGLLDVAGTPIERIWHVAHMSSKRLSPASESCRAYLLEHTAEFLGREYGGLMPGRRVA was 1168 nmol/min/mg of protein

Note to self: Chemoheterotrophic β-galactosidase activity recorded for P221S/T299I (protein) MSSFLRALTLRQLQIFVTVARHASFVRAAEELHLTQPAVSMQVKQLESVVGMALFERVKGQLTLTEPGDRLLHHASRILGEVKDAEEGLQAVKDVEQGSITIGLISTSKYFAPKLLAGFTALHPGVDLRIAEGNRETLLRLLQDNAIDLALMGRPPRELDAVSEPIAAHPHVLVASPRHPLHDAKGFDLQELRHETFLLREPGSGTRTVAEYMFRDHLFTSAKVITLGSNETIKQAVMAGMGISLLSLHTLGLELRTGEIGLLDVAGTPIERIWHVAHMSSKRLSPASESCRAYLLEHIAEFLGREYGGLMPGRRVA was 655 nmol/min/mg of protein

Note to self: Chemoheterotrophic β-galactosidase activity recorded for D144N (protein) MSSFLRALTLRQLQIFVTVARHASFVRAAEELHLTQPAVSMQVKQLESVVGMALFERVKGQLTLTEPGDRLLHHASRILGEVKDAEEGLQAVKDVEQGSITIGLISTSKYFAPKLLAGFTALHPGVDLRIAEGNRETLLRLLQNNAIDLALMGRPPRELDAVSEPIAAHPHVLVASPRHPLHDAKGFDLQELRHETFLLREPGSGTRTVAEYMFRDHLFTPAKVITLGSNETIKQAVMAGMGISLLSLHTLGLELRTGEIGLLDVAGTPIERIWHVAHMSSKRLSPASESCRAYLLEHTAEFLGREYGGLMPGRRVA was 809 nmol/min/mg of protein

Note to self: Chemoheterotrophic β-galactosidase activity recorded for A167V (protein) MSSFLRALTLRQLQIFVTVARHASFVRAAEELHLTQPAVSMQVKQLESVVGMALFERVKGQLTLTEPGDRLLHHASRILGEVKDAEEGLQAVKDVEQGSITIGLISTSKYFAPKLLAGFTALHPGVDLRIAEGNRETLLRLLQDNAIDLALMGRPPRELDAVSEPIVAHPHVLVASPRHPLHDAKGFDLQELRHETFLLREPGSGTRTVAEYMFRDHLFTPAKVITLGSNETIKQAVMAGMGISLLSLHTLGLELRTGEIGLLDVAGTPIERIWHVAHMSSKRLSPASESCRAYLLEHTAEFLGREYGGLMPGRRVA was 768 nmol/min/mg of protein
